# system_under_test: catalytic domain of human recombinant MMP-3 (Homo sapiens)
# Sequence (P08254 100-272 limits assumed): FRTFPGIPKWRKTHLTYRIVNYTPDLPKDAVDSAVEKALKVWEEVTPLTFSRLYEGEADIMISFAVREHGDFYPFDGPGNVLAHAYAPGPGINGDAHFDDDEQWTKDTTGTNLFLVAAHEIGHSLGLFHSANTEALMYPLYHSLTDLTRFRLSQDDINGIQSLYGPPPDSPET
# assay_protocol: In vitro MMP inhibition assay, MMP-3 catalytic domain (fluorogenic peptide substrate cleavage, Ki)
# condition: human MMP-3, catalytic domain (CD); read-out: hMMP Ki 03/CD
pKi: −log10 of the molar value.
measurement_type: pKi

Example results:
compound=COc1cc(CNC(=O)c2nc3scc(COC[C@H]4CC[C@H](NS(C)(=O)=O)CC4)c3c(=O)[nH]2)ccc1F number=6.00
compound=COc1cccc(CNC(=O)c2nc3scc(COCCC4CCN(C(C)=O)CC4)c3c(=O)[nH]2)c1 number=6.10
compound=COc1cccc(CNC(=O)c2nc3ccc(F)c(OCCC4CCN(S(C)(=O)=O)CC4)c3c(=O)[nH]2)c1 number=5.89
compound="COc1cc(CNC(=O)c2nc3scc(COC[C@@H]4CO[C@@H](C(N)=O)CO4)c3c(=O)[nH]2)ccc1F (relative stereo)" number=6.02
compound="COc1cccc(CNC(=O)c2nc3scc(COC[C@@H]4CO[C@@H](C(=O)O)CO4)c3c(=O)[nH]2)c1 (relative stereo)" number=5.88
compound=COc1cccc(CNC(=O)c2nc3scc(COCCC4CCN(S(C)(=O)=O)CC4)c3c(=O)[nH]2)c1 number=6.11

(1) COc1cc(CNC(=O)c2nc3scc(COC[C@H]4CC[C@H](CO)CC4)c3c(=O)[nH]2)ccc1F
(2) COc1cc(CNC(=O)c2nc3scc(COC[C@@H]4CO[C@@H](C(=O)O)CO4)c3c(=O)[nH]2)ccc1F (relative stereo)
Problem: For the two items 1 and 2 , which reports the higher pKi value? Write down the label attached to your selection.
Result: 2
(2: 6.18, 1: 5.87)
